Test: Solubility test of (meth)acrylate compound
Type: physicochemical
Parameters: key: ◯: The sample is dissolved at room temperature.; Δ: The sample is dissolved when heated, and crystals are not precipitated even when the sample is cooled.; x: The sample is dissolved when heated, but crystals are precipitated when the sample is cooled, or the sample is not dissolved even when heated
Settings: 30 parts by weight acrylate + 70 parts propylene glycol monomethyl ether
property: Solubility (30 mass % concentration) Solvent PGME

Some molecules with recorded Solubility (30 mass % concentration) Solvent PGME:
- molecule: "C=CC(=O)Oc1ccc(C2(c3ccc(OC(=O)C=C)c(C)c3)c3ccccc3-c3ccccc32)cc1C [Comparative Example 4]"
  measured: "x"
- molecule: "C=CC(=O)Oc1c(Cc2ccccc2)cc(C2(c3cc(Cc4ccccc4)c(OC(=O)C=C)c(-c4ccccc4)c3)c3ccccc3-c3ccccc32)cc1-c1ccccc1 [Example 5]"
  measured: "∘"
- molecule: "C=CC(=O)Oc1ccc(C2(c3ccc(OC(=O)C=C)c(-c4ccccc4)c3)c3ccccc3-c3ccccc32)cc1-c1ccccc1 [Comparative Example 5]"
  measured: "x"
- molecule: "C=CC(=O)Oc1ccc2ccccc2c1-c1c(OC(=O)C=C)ccc2ccccc12 [Reference Example 2]"
  measured: "x"

Now for a further molecule.
I am curious: what Solubility (30 mass % concentration) Solvent PGME value has been reported for C=CC(=O)OCCOc1ccc(C2(c3ccc(OCCOC(=O)C=C)c(C)c3)c3ccccc3-c3ccccc32)cc1C [Comparative Example 6] ?
x

---

Experiment: Refractive index and Abbe number (Abbe refractometer, NMP solutions extrapolated to 100% by weight)
Format: physicochemical
Details: (meth)acrylate compound; calculated from extrapolated refractive indices at 486, 589, 656 nm, 20° C.
Decide using Abbe number alone. Strictly below 20: 1. Equal to or above 20: -1.

Consider C=CC(=O)Oc1ccc2ccccc2c1-c1c(OC(=O)C=C)ccc2ccccc12 [Reference Example 2] . Does its Abbe number lie strictly below 20?
1

What do we get for C=CC(=O)OCCOc1ccc(C2(c3ccc(OCCOC(=O)C=C)c(C)c3)c3ccccc3-c3ccccc32)cc1C [Comparative Example 6] ?
-1

What do we get for C=CC(=O)Oc1ccc(C2(c3ccc(OC(=O)C=C)c(C)c3)c3ccccc3-c3ccccc32)cc1C [Comparative Example 4] ?
-1

What do we get for C=CC(=O)Oc1ccc(C2(c3ccc(OC(=O)C=C)c(-c4ccccc4)c3)c3ccccc3-c3ccccc32)cc1-c1ccccc1 [Comparative Example 5] ?
-1

---

Test: Solubility test of (meth)acrylate compound
Assay type: physicochemical
Design: key: ◯: The sample is dissolved at room temperature.; Δ: The sample is dissolved when heated, and crystals are not precipitated even when the sample is cooled.; x: The sample is dissolved when heated, but crystals are precipitated when the sample is cooled, or the sample is not dissolved even when heated
Settings: 30 parts by weight acrylate + 70 parts methyl ethyl ketone
property: Solubility (30 mass % concentration) Solvent MEK

- compound: "C=CC(=O)Oc1ccc(C2(c3ccc(OC(=O)C=C)c(-c4ccccc4)c3)c3ccccc3-c3ccccc32)cc1-c1ccccc1"
  measured: "x"
- compound: "C=CC(=O)Oc1c(Cc2ccccc2)cc(C2(c3cc(Cc4ccccc4)c(OC(=O)C=C)c(-c4ccccc4)c3)c3ccccc3-c3ccccc32)cc1-c1ccccc1"
  measured: "∘"
- compound: "C=CC(=O)Oc1ccc2ccccc2c1-c1c(OC(=O)C=C)ccc2ccccc12 [Reference Example 2]"
  measured: "∘"
- compound: "C=CC(=O)Oc1ccc(C2(c3ccc(OC(=O)C=C)c(C)c3)c3ccccc3-c3ccccc32)cc1C"
  measured: "x"

Now for a further compound.
I am curious: what Solubility (30 mass % concentration) Solvent MEK value has been reported for C=CC(=O)OCCOc1ccc(C2(c3ccc(OCCOC(=O)C=C)c(C)c3)c3ccccc3-c3ccccc32)cc1C ?
∘
